- test system: muscarinic receptors
- assay remarks: Radio ligand binding: displacement of the muscarinic agonist 3H-Oxotremorine-M (3H-OXO-M), rat cerebral cortex
- Parameters: species or system Hooded Lister rats
- condition details: 2 nM 3H-OXO-M, rat cerebral cortex membranes, 2 mM magnesium chloride, 37° C., 30 min
Structures can show the parent of a compound that is named as a salt.
Recorded pIC50 values for a group of compounds are listed next.
Note: pIC50 values are expressed as the negative base-10 logarithm of concentration in M.

compound | pIC50
Nc1noc(C=C2CC3CCN(C2)C3)n1 (racemic) | 6.28
Cc1noc(/C=C2\CN3CCC2C3)n1 (racemic) [Example E2, oxalate salt] | 7.52
C(=C1/CN2CCC1C2)/c1ncco1 (racemic) | 8.07
C(=C1CN2CCC1C2)c1cnco1 (racemic) [Example E4, oxalate salt] | 6.53
Nc1noc(/C=C2\CN3CCC2C3)n1 (racemic) [Example E1] | 7.93

Switching to the query record.
Under muscarinic receptors: pIC50 value of C(=C1/CN2CCC1C2)/c1nccs1 (racemic) [Example E10, oxalate salt] ?
6.78

----------
- test system: muscarinic receptors
- Assay type: binding, Hooded Lister rats
- condition details: 0.27 nM 3H-QNB, rat cerebral cortex membranes, 37° C., 30 min
Counter-ions that a name gives are not always drawn.
measurement label: pIC50
Just so you know, pIC50 here is -log10 of the concentration in molar units; reply with that number alone.

compound | pIC50
C(=C1CN2CCC1C2)c1cnco1 (racemic) [Example E4, oxalate salt] | 4.55

Fill in the blank: the reported pIC50 of Nc1noc(/C=C2\CN3CCC2C3)n1 (racemic) [Example E1] is ____.
5.49

Try the compound Cc1noc(/C=C2\CN3CCC2C3)n1 (racemic) [Example E2, oxalate salt]
5.72

And for C(=C1/CN2CCC1C2)/c1ncco1 (racemic) ?
5.74

Another compound to look at: Nc1noc(C=C2CC3CCN(C2)C3)n1 (racemic)
5.24

What do you have for C(=C1/CN2CCC1C2)/c1nccs1 (racemic) [Example E10, oxalate salt] ?
5.60
